# Protocol text: chemical genetic growth profiling, strain panel (AID 1159580);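 note: tested at 20 µM; growth read once vehicle control cultures reached saturation at 30 °C; 1 = growth at the plate median or of vehicle wells; lower values mean less growth of the strain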
# Conditions: S. cerevisiae deletion strains, growth OD, locus YLL001W, strain dnm1, active compounds read low
About 2,000 (36%) of roughly 5,500 compounds were called active. About 18% were inconclusive and are not listed. Some of the results follow.
Item-by-item account of normalized growth

{"Molecule": "C[C@H]1[C@H](C)CC[C@]2(C(=O)O)CC[C@]3(C)C(=CCC4[C@@]5(C)C[C@@H](O)[C@H](O)[C@@](C)(CO)C5[C@H](O)C[C@]43C)[C@H]12 (some centres not stated)", "normalized growth": 0.964}
{"Molecule": "Oc1ccc2c3c1OC1[C@@H](O)CC[C@@]4(O)[C@@H](C2)N(CC2CCC2)CC[C@]314 (some centres not stated)", "normalized growth": 0.978}
{"Molecule": "CC(C)Nc1nc(Cl)nc(NC(C)C)n1", "normalized growth": 1.01}
{"Molecule": "CSc1nc(NC(C)C)nc(NC(C)C)n1", "normalized growth": 0.979}
{"Molecule": "CC(=O)OC1CC[C@@]2(C)C(CCC3C2CC[C@]2(C)C(C4=CC(=O)OC4)C(OC(C)=O)CC32O)C1 (some centres not stated)", "normalized growth": 0.998}
{"Molecule": "C[C@H]1[C@H](C)CC[C@]2(C(=O)O)CC[C@]3(C)C(=CCC4[C@@]5(C)C[C@@H](O)[C@H](O)[C@@](C)(CO)C5CC[C@]43C)[C@H]12 (some centres not stated)", "normalized growth": 1}
{"Molecule": "COc1nc(NC(C)C)nc(NC(C)C)n1", "normalized growth": 1.02}
{"Molecule": "CC1=CC(=O)C(C(C)C)=CC1=O", "normalized growth": 1.01}
{"Molecule": "COc1c(O)cc2c(c1O)[C@H]1O[C@H](CO)[C@@H](O)[C@H](O)[C@@H]1OC2=O", "normalized growth": 1.03}
{"Molecule": "O=C(Oc1cccc2cccnc12)c1ccccc1", "normalized growth": 0.979}
{"Molecule": "CC(=O)Oc1ccccc1C(=O)Oc1ccccc1C(=O)O", "normalized growth": 1}
{"Molecule": "COC1=CC(C)[C@@H]2C[C@H]3OC(=O)C[C@H]4C(C)=C(OC)C(=O)C([C@@]34C)[C@@]2(C)C1=O (some centres not stated)", "normalized growth": 0.969}
{"Molecule": "O=c1c(-c2ccc(O)cc2)coc2c(C3O[C@H](CO)[C@@H](O)[C@H](O)[C@H]3O)c(O)ccc12 (some centres not stated)", "normalized growth": 0.99}
{"Molecule": "CCCCCC(O)C1C(=O)OC(C)C(O)/C=C/C=C/C=C/C=C/C=C(\\C)C(O)CC(O)CC(O)CC(O)CC(O)CC(O)CC1O (configuration not stated)", "normalized growth": 1.01}
{"Molecule": "CC1(C)C(O)CC(=O)C2(C)C1CC(O)C1(C)C2CCC2(C)C(c3ccoc3)OC(=O)C3OC321 (configuration not stated)", "normalized growth": 1.01}
{"Molecule": "C/C=C/CC(C)C(O)C1C(=O)NC(CC)C(=O)N(C)CC(=O)N(C)C(CC(C)C)C(=O)NC(C(C)C)C(=O)N(C)C(CC(C)C)C(=O)NC(C)C(=O)NC(C)C(=O)N(C)C(CC(C)C)C(=O)N(C)C(CC(C)C)C(=O)N(C)C(C(C)C)C(=O)N1C (configuration not stated)", "normalized growth": 1.02}
{"Molecule": "CC1Cc2ccccc2N1NC(=O)c1ccc(Cl)c(S(N)(=O)=O)c1 (configuration not stated)", "normalized growth": 0.994}
